Test system: TRPC4 beta (transient receptor potential cation channel C4), mouse
Assay: potentiation of DAMGO EC20 TRPC4 response – cell-based, Fluo-4, HEK293 TRPC4beta/mu-opioid, confirmation (AID 2555)
Details: DAMGO EC20, Fluo-4 calcium flux, at 10 µM; active compounds read high
Activity calls are given as the source filed them.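 How the source made its calls: active means primary screen hit whose calcium fluorescence ratio, in both repeats, exceeds the weak agonist control mean by 3 SD; inactive means the rest.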

- COMPOUND: "CCN(CC)CCSc1nnc2c3ccccc3n(Cc3ccccc3)c2n1"
  potentiation: "inactive"
- COMPOUND: "COc1cc(OC)c(OC)cc1CCC(C)NCCC(c1ccccc1)c1ccccc1 (stereo not given)"
  potentiation: "inactive"
- COMPOUND: "C=CCn1c(SCCN2CCCCC2)nc2c1c(=O)[nH]c(=O)n2C"
  potentiation: "16% (active)"
- COMPOUND: "O=C(O)c1ccc(NC(=O)c2cn(-c3ccccc3)nc2-c2ccc(Br)cc2)cc1"
  potentiation: "inactive"
- COMPOUND: "COc1ccc2sc(N(CCCN(C)C)C(=O)c3ccc(S(=O)(=O)N4CCCc5ccccc54)cc3)nc2c1"
  potentiation: "28% (active)"

* * *

System: TRPC4 (transient receptor potential cation channel C4 beta), mouse
Assay: potentiation of DAMGO EC20 TRPC4 response – cell-based, second round, Fluo-4, HEK293 TRPC4beta/mu-opioid, 1 µM, confirmation (AID 2554)
Conditions: DAMGO EC20, Fluo-4 calcium flux, at 1 µM
Activity calls are given as the source filed them.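 Rule for the calls: active = primary screen hit whose fluorescence ratio, in both repeats, exceeds the weak agonist control mean by 3 SD; inactive = the rest.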
Labels: active, inactive

- MOLECULE: "CCCCCOc1ccc2oc(=O)c3c(c2c1)CCCN3C(=O)CN1CCCC(C(=O)OCC)C1 (stereo unspecified)"
  GROUP_LABEL: "inactive"
- MOLECULE: "Cc1c(N(C)S(=O)(=O)c2cc(C(=O)NCC3CCCO3)ccc2Cl)c(=O)n(-c2ccccc2)n1C (stereo unspecified)"
  GROUP_LABEL: "inactive"
- MOLECULE: "COc1cccc(C(CNC(=O)C(c2ccccc2)c2ccccc2)N(C)C)c1 (stereo unspecified)"
  GROUP_LABEL: "inactive"
- MOLECULE: "Clc1ccc(OCCCc2nc(-c3ccncc3)no2)c(Cl)c1"
  GROUP_LABEL: "inactive"
- MOLECULE: "Cc1oc(-c2ccc(Cl)cc2)nc1CS(=O)CC(=O)NCCCN(C)C1CCCCC1 (stereo unspecified)"
  GROUP_LABEL: "inactive"
- MOLECULE: "CCOC(=O)C1(Cc2ccccc2)CCN(CC2CC=CCC2)CC1 (stereo unspecified)"
  GROUP_LABEL: "inactive"
- MOLECULE: "C=CCc1cc(Cl)ccc1OCCCn1ccnc1"
  GROUP_LABEL: "active"
- MOLECULE: "Cc1cccc(Cn2c(N3CCN(c4ccccc4)CC3)nc3c2c(=O)n(C)c(=O)n3C)c1"
  GROUP_LABEL: "inactive"
- MOLECULE: "Cc1ccc2nc(C)c3c(c2c1)N(c1ccc(F)cc1)CC3"
  GROUP_LABEL: "inactive"
- MOLECULE: "COCCNc1c2c(nc3ccccc13)CCC2"
  GROUP_LABEL: "inactive"
- MOLECULE: "C/C(=N\\N1CCN(C)CC1)c1ccc(Cl)c(Cl)c1"
  GROUP_LABEL: "inactive"
- MOLECULE: "CC(OC(=O)CNC(=O)c1ccccc1F)C(=O)Nc1nc(-c2ccccc2)cs1 (stereo unspecified)"
  GROUP_LABEL: "inactive"
- MOLECULE: "CCCCNCC1C(Oc2ccc(Cl)cc2)C(=O)N1c1ccccc1C (stereo unspecified)"
  GROUP_LABEL: "inactive"
- MOLECULE: "COc1ccc(C)cc1N(C(=O)c1snc(C(N)=O)c1N)C(C(=O)NC1CCCC1)c1ccc(F)cc1 (stereo unspecified)"
  GROUP_LABEL: "inactive"
- MOLECULE: "COc1cc(/C=C2\\SC(=O)N(c3ccccc3Cl)C2=O)cc([N+](=O)[O-])c1O"
  GROUP_LABEL: "inactive"
- MOLECULE: "Cc1sc(NC(=O)C2CCCCC2C(=O)O)c(C(N)=O)c1-c1ccc(C(C)(C)C)cc1 (stereo unspecified)"
  GROUP_LABEL: "inactive"
- MOLECULE: "Cc1nn(-c2cc(C(F)(F)F)ccc2Cl)c2nc(C(Cl)(Cl)Cl)[nH]c(=O)c12"
  GROUP_LABEL: "inactive"
- MOLECULE: "COc1ccc(C2NC(C(=O)O)Cc3c2[nH]c2ccccc32)cc1CN1CCN(c2ccc(F)cc2)CC1 (stereo unspecified)"
  GROUP_LABEL: "inactive"
- MOLECULE: "COc1ccc(N2CCN(C3CCCCC3NS(=O)(=O)c3ccc(Cl)cc3)CC2)cc1 (stereo unspecified)"
  GROUP_LABEL: "inactive"
- MOLECULE: "Cc1cc(S(=O)(=O)NC2CCN(Cc3ccccc3)CC2)c(C)cc1Cl"
  GROUP_LABEL: "inactive"
- MOLECULE: "CN(CC(=O)Nc1ccc(F)cc1)C(=O)COC(=O)c1ccccc1"
  GROUP_LABEL: "active"
